Biological target: Cathepsin D (Homo sapiens, UniProt P07339)
Sequence (P07339 65-162 limits assumed): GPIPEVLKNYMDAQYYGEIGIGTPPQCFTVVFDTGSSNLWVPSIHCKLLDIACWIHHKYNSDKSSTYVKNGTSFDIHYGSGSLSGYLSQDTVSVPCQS
Sequence (P07339 169-412 limits assumed): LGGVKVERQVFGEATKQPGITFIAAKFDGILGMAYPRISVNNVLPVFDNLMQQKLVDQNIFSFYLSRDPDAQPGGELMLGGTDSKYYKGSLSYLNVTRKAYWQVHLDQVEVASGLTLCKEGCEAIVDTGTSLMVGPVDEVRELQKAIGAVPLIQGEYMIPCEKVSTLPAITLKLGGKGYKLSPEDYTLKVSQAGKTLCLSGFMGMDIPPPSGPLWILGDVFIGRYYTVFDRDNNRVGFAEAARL
Experiment: Inhibition of human recombinant CatD using Mca-GKPILFFRLK(DNP)-dR-NH2 as substrate after 1 hr by fluorescence analysis
readout.type: IC50 (nM)
// units = nM; emit number, no label

Prompt: Using the record for `COC[C@@H](Oc1cc(C[C@@H]2CS(=O)(=O)C[C@H](NCc3cccc(C(C)(C)C)c3)[C@H]2O)cc(F)c1N)C(F)(F)F` , report its IC50.
Completion: 250

Prompt: Using the record for `CC(C)(CO)c1cccc(CN[C@H]2CS(=O)(=O)C[C@@H](Cc3cc(F)c(N)c(OC(C(F)(F)F)C(F)(F)F)c3)[C@@H]2O)c1` , report its IC50.
Completion: 600

Prompt: Using the record for `CC(C)(C)c1cccc(CN[C@H]2CS(=O)(=O)C[C@@H](Cc3ccc(N)c(F)c3)[C@@H]2O)c1` , report its IC50.
Completion: 2520

Prompt: Using the record for `CO[C@@H](Cc1cc(C[C@@H]2CS(=O)(=O)C[C@H](NCc3cccc(C(C)(C)C)c3)[C@H]2O)cc(F)c1N)C(F)(F)F` , report its IC50.
Completion: 1140

Prompt: Using the record for `CC(C)(C)c1cccc(CN[C@H]2CS(=O)(=O)C[C@@H](Cc3cc(F)c(N)c(-c4ccco4)c3)[C@@H]2O)c1` , report its IC50.
Completion: 360

Prompt: Using the record for `CC(C)(C)c1cccc(CN[C@H]2CS(=O)(=O)C[C@@H](Cc3cc(F)c(N)c(C[C@H](O)C(F)(F)F)c3)[C@@H]2O)c1` , report its IC50.
Completion: 1050

Prompt: Using the record for `Nc1c(F)cc(C[C@@H]2CS(=O)(=O)C[C@H](NCc3cccc(OC(F)(F)F)c3)[C@H]2O)cc1OC(C(F)(F)F)C(F)(F)F` , report its IC50.
Completion: 2530
